# System: normal primary NK cells, pool 1 (3 donors), resting (IL-2 0 ng/mL);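 note: normalised to DMSO-only wells as negative and benzethonium chloride as positive control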
# Assay Method Text: percent inhibition of viability; higher = more inhibition
# Condition Info: 72 h; 0.1 nM
Assignment: determine reported percent inhibition of viability for the given compounds.
Numbers only, in %.

Example entries begin here.
C[C@@H](Oc1ccc2[nH]nc(/C=C/c3cnn(CCO)c3)c2c1)c1c(Cl)cncc1Cl (max concentration tested 1000 nM): -1.49
Cn1cc(CNCC2CCN(c3ncc(C(=O)NO)cn3)CC2)c2ccccc21 [Quisinostat] (max concentration tested 1000 nM): -8.56
CNC(=O)c1ccc(C)c(-n2c(C)cc(OCc3ccc(F)cc3F)c(Br)c2=O)c1 (max concentration tested 1000 nM): 4.88
CC(C)C[C@H](NC(=O)[C@H](CCc1ccccc1)NC(=O)CN1CCOCC1)C(=O)N[C@@H](Cc1ccccc1)C(=O)N[C@@H](CC(C)C)C(=O)[C@@]1(C)CO1 [Carfilzomib] (max concentration tested 1000 nM): -8.37
COc1cc2c(N3CCN(C(=O)Nc4ccc(OC(C)C)cc4)CC3)ncnc2cc1OCCCN1CCCCC1 [Tandutinib] (max concentration tested 1000 nM): 6.87

Batch request: percent inhibition of viability for each of the following compounds.
1. CC[C@@H]1C(=O)N(C)c2cnc(Nc3ccc(C(=O)N[C@H]4CC[C@H](N5CCN(CC6CC6)CC5)CC4)cc3OC)nc2N1C(C)C [Volasertib] (max concentration tested 1000 nM)
2. Cc1ccc(NC(=O)c2ccc(CN3CC[C@H](N(C)C)C3)c(C(F)(F)F)c2)cc1Nc1nccc(-c2cncnc2)n1 [Bafetinib] (max concentration tested 1000 nM)
3. C/C(=C\c1csc(C)n1)[C@@H]1C[C@@H]2O[C@]2(C)CCC[C@H](C)[C@H](O)[C@@H](C)C(=O)C(C)(C)[C@@H](O)CC(=O)N1 [Ixabepilone] (max concentration tested 1000 nM)
4. Clc1ccccc1C(c1ccccc1)(c1ccccc1)n1cccn1 [TRAM-34] (max concentration tested 1000 nM)
5. O=C1c2c(O)ccc(O)c2C(=O)c2c(NCCNCCO)ccc(NCCNCCO)c21 [Mitoxantrone] (max concentration tested 1000 nM)

Result:
1: 8.74; 2: -11.6; 3: -34.8; 4: -5.83; 5: -14

Batch request: percent inhibition of viability for each of the following compounds.
1. CCNC(=O)c1noc(-c2cc(C(C)C)c(O)cc2O)c1-c1ccc(CN2CCOCC2)cc1 [Luminespib] (max concentration tested 1000 nM)
2. CNC(=O)c1cc(Oc2ccc(NC(=O)Nc3ccc(Cl)c(C(F)(F)F)c3)cc2)ccn1 [Sorafenib] (max concentration tested 1000 nM)

Result:
-4.56
-6.78
